Data credit: ChEMBL document CHEMBL1137161

- tested system: D(2) dopamine receptor (Homo sapiens)
- Sequence (P14416 whole entry): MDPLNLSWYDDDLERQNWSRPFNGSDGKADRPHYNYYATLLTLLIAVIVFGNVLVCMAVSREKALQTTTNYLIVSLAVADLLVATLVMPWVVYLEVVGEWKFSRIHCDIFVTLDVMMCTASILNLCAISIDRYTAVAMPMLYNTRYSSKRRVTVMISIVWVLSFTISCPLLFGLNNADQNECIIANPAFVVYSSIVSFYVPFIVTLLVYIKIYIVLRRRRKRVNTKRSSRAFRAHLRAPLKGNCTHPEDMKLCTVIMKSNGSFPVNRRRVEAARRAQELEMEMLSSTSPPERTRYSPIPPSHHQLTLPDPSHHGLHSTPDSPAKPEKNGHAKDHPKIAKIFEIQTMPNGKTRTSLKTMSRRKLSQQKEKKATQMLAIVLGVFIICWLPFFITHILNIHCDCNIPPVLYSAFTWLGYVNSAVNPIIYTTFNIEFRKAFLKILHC
measurement type: Ki (nM)
Just the number in nM, nothing appended.

# count of solved cases: 5
c1ccc(-c2nc3cc(CCN4CCN(c5ccccc5)CC4)ccc3[nH]2)cc1 | 31.6
Cc1cccc(N2CCN(CCc3ccc4[nH]nnc4c3)CC2)c1C | 51.3
Oc1nc2cc(CCN3CCN(c4cccc(C(F)(F)F)c4)CC3)ccc2[nH]1 | 28.2
c1ccc2c(N3CCN(CCc4ccc5[nH]nnc5c4)CC3)cccc2c1 | 24
c1ccc2c(N3CCN(CCc4ccc5c(c4)NCN5)CC3)cccc2c1 | 1.66

As a next step, examine the compound that follows.
Task: # Ki lookup, item COc1ccccc1N1CCN(CCc2ccc3[nH]nnc3c2)CC1
Result: 5.37
